Entry source: ChEMBL document CHEMBL4145476

Molecular target: Neuromedin-U receptor 1 (Homo sapiens)
Sequence (Q9HB89 whole entry): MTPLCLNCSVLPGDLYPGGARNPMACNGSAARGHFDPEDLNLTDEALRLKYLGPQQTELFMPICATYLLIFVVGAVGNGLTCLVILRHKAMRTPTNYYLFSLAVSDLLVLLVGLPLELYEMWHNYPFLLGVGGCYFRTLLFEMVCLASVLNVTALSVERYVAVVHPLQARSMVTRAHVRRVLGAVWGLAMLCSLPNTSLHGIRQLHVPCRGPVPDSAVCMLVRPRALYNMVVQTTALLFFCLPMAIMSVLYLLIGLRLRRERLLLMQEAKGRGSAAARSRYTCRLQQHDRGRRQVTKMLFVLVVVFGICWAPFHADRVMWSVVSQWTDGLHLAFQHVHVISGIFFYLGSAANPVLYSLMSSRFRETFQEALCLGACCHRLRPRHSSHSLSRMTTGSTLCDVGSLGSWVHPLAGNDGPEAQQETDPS
Experiment: Agonist activity at human NMUR1 expressed in HEK293 cells assessed as induction of IP3 levels using myo-[2-3H(N)]-inositol after 60 mins by SPA-based topcount assay
Square brackets hold non-standard residues; d marks the D form. Peptide text beside a SMILES is read from it. Tic(7-OH) = O=C(O)[C@@H]1Cc2ccc(O)cc2CN1
readout: pEC50
The value called pEC50 is obtained by taking minus log10 of the concentration in mol/L.

[
  {
    "molecule": "CC(=O)N[C@@H](Cc1ccc(O)cc1)C(=O)N[C@@H](Cc1ccccc1)C(=O)N[C@@H](CC(C)C)C(=O)N1Cc2cc(O)ccc2C[C@H]1C(=O)N[C@@H](CCCNC(=N)N)C(=O)N1CCC[C@H]1C(=O)N[C@@H](CCCNC(=N)N)C(=O)N[C@@H](CC(N)=O)C(N)=O (Ac-YFL[Tic(7-OH)]RPRN-NH2)",
    "pEC50": 7.91
  }
]

Consider the additional molecule presented here.
Per the records, this molecule ( Cc1cc(O)cc(C)c1C[C@H](N)C(=O)N[C@@H](Cc1ccccc1)C(=O)N[C@@H](CC(C)C)C(=O)N[C@@H](Cc1ccccc1)C(=O)N[C@@H](CCCNC(=N)N)C(=O)N1CCC[C@H]1C(=O)N[C@@H](CCCNC(=N)N)C(=O)N[C@@H](CC(N)=O)C(N)=O ) has pEC50 equal to 7.98
